Test system: NCI-H23
Assay: NCI tumour cell line growth inhibition, 48 h
The source made the active and inactive calls. Rule as the data show it: active = GI50 up to about 1.1 µM and inactive = higher.
Classes used: True (active), False (inactive)

# compound, label
rows = [
    ("COc1ccc(N[S+]([O-])c2ccc(Cl)cc2)cc1 (configuration not stated)", "False"),
    ("COc1ccc(N2C(=O)c3c(c4[nH]c5ccc(OC)cc5c4c4ccc(C(C)(C)C)cc34)C2=O)cc1", "False"),
    ("COc1ccc2[nH]c(C(=O)N3CC(CCl)c4ccc([N+](=O)[O-])cc43)cc2c1 (configuration not stated)", "False"),
    ("CC(C)c1ccc(NC(=S)NC(=O)c2ccccc2)cc1", "False"),
    ("O=C(O)CC1C(=O)OC2C3COC(=O)c4cc(O)c(O)c(O)c4-c4c(cc(O)c(O)c4O)C(=O)OC2C(OC(=O)c2cc(O)c(O)c4c2C1C(O)C(=O)O4)C(OC(=O)c1cc(O)c(O)c(O)c1)O3 (configuration not stated)", "False"),
    ("O=C1C(=O)N(c2nccs2)C(=O)C(=O)C1c1nc2ccccc2s1", "False"),
    ("COc1ccc(/C=C(\\Cl)c2ccc(OC)c(OC)c2)cc1OC", "False"),
    ("CN(/N=C/c1ccccc1O)c1ccc2ccccc2n1", "False"),
    ("CC(=O)OCC1OC(n2c(-c3ccc(C)cc3)cc(-c3ccccc3)c(C#N)c2=S)C(OC(C)=O)C(OC(C)=O)C1OC(C)=O (configuration not stated)", "False"),
    ("CC(C)(C)C1CCC2c3c([nH]c4ccccc34)C3C(=O)N(c4ccc([N+](=O)[O-])cc4)C(=O)C3C2C1 (configuration not stated)", "False"),
    ("Nc1ccc(C(=O)CC(N)C(=O)O)cc1O (configuration not stated)", "False"),
    ("COC(=O)C1C=CN(N(C)C)C2=C1C(=O)c1c(O)cccc1C2=O (configuration not stated)", "False"),
    ("CCCCCCOC(=O)/C=C/[C@]1(CO)C/C(=C/CC(C(C)C)C(C)C)C(=O)O1", "False"),
    ("O=C(O)C1(C(=O)O)CC1", "False"),
    ("Clc1cc2nn(C3CCCCO3)nc2cc1Cl (configuration not stated)", "False"),
    ("O=C1c2ccccc2-c2c1c(-c1ccccc1)c1n2C2(C(=O)c3ccccc3C2=O)C2C(=O)N(c3ccccc3)C(=O)C12 (configuration not stated)", "False"),
    ("CC(=O)O[C@H]1C(=O)O[C@@H]2C[C@H]3C(C)=CC(=O)[C@@H](O)[C@]3(C)[C@H]3[C@@]4(O)OC[C@]32[C@@H]1[C@@H](C)[C@H]4O", "True"),
    ("CS(=O)(=O)OCCCCOS(C)(=O)=O", "False"),
    ("CCN(CC)CCSc1c2ccccc2nc2c(OC)ccc(OC)c12", "False"),
    ("COc1cc(S(=O)(=O)Nc2ccc(-c3csc(N4C(=O)CSC4c4ccccc4O)n3)cc2)ccc1Cl (configuration not stated)", "False"),
    ("Cc1cc(O)c2c(=O)c3ccccc3[nH]c2c1", "False"),
    ("Cc1ccc(C(=O)CCC2C(=O)CC(C)(C)CC2=O)cc1", "False"),
    ("O=[N+]([O-])c1cc(C2SCc3nc4ccccc4n32)ccc1Cl (configuration not stated)", "False"),
    ("O=C1Nc2ccccc2/C1=N/NC(=S)Nc1ccc([N+](=O)[O-])cc1", "False"),
    ("C/C(=N\\NC(=S)N(C)C)c1ncc[nH]1", "False"),
    ("COC(=O)/C=C1\\C(CO[Si](C)(C)C(C)(C)C)OC(n2ccc(=O)[nH]c2=O)C1O (configuration not stated)", "False"),
    ("Cc1ccnc2nc(-c3ccc(Cl)cc3)cc(O)c12", "False"),
]

* * *

Tested on: CCRF-CEM
Experiment: NCI tumour cell line growth inhibition, 48 h
Activity calls are given as the source filed them. Rule as the data show it: active = GI50 up to about 1.1 µM and inactive = higher.

# compound, GI50
measured = [
    ("O=c1cc(-c2nc3ccccc3[nH]2)[nH]c2nc(-c3nc4ccccc4[nH]3)cc(-c3ccc(Cl)cc3)c12", "24.7 µM (inactive)"),
    ("COc1ccc(N2C(=O)c3c(c4[nH]c5ccc(OC)cc5c4c4ccc(C(C)(C)C)cc34)C2=O)cc1", "> 100 µM (inactive)"),
    ("O=c1/c(=C/c2ccc([N+](=O)[O-])o2)sc2n1[C@@H](c1ccc(Cl)cc1)C=C(c1cc(F)c(Cl)cc1Cl)N=2", "4.83 µM (inactive)"),
    ("CCCCCCCCCCCCC/C=C(/COCC[N+](C)(C)C)OC(C)=O.CCCCCCCCCCCCCC/C(=C/OCC[N+](C)(C)C)OC(C)=O", "1.76 µM (inactive)"),
    ("CCN=C=NCCCN(C)C", "> 100 µM (inactive)"),
    ("CSc1nc(NC2OCC(OC(C)=O)C(OC(C)=O)C2OC(C)=O)c(/N=C\\C=N\\c2c(NC3OCC(OC(C)=O)C(OC(C)=O)C3OC(C)=O)nc(SC)[nH]c2=O)c(=O)[nH]1 (configuration not stated)", "> 54.8 µM (inactive)"),
    ("COc1ccc2c(c1)nc1n2C(N)=Nc2ccccc2S1", "2.55 µM (inactive)"),
]

* * *

Each item that follows carries a reported GI50.
Tested on: MCF7
Test: NCI tumour cell line growth inhibition, 48 h
The source made the active and inactive calls. Cut-off read from the data, not from the text of the source: active = GI50 up to about 1.1 µM and inactive = higher.

# compound, GI50
data = [
    ("CCCN(CCC)CCc1ccc(OC2=CCN(C)CC2)cc1", "> 100 µM (inactive)"),
    ("CCC(=O)N(c1ccccc1)C(C)CN1CCC(O)(c2ccccc2)CC1 (centres undefined)", "> 100 µM (inactive)"),
    ("CCOC(=O)c1cnc2oc3ccc(O)cc3c2c1-c1ccccc1", "44.7 µM (inactive)"),
    ("OCCN(CCO)c1ccc2c(-c3ccccc3)cc(N(CCO)CCO)nc2n1", "> 100 µM (inactive)"),
    ("CN(C)c1ccc(C(C#N)N2CCCN(C(C#N)c3ccc(N(C)C)cc3)C2c2ccc(N(C)C)cc2)cc1 (centres undefined)", "> 100 µM (inactive)"),
    ("CCOC(=O)c1c(NS(=O)(=O)c2ccccc2)sc2c1CCCC2", "46.7 µM (inactive)"),
    ("C[C@@H]1C[C@@]2(O[C@@H]2C)C(=O)O[C@@H]2CCN3CC=C(COC(=O)[C@]1(C)O)[C@H]23", "> 100 µM (inactive)"),
    ("Sc1nnc(CNc2ccc(-c3nnc(S)n3-c3ccc(Cl)cc3)cc2)n1-c1ccc(Cl)cc1", "40.3 µM (inactive)"),
    ("COc1ccc2c(c1)nc1n2C(N)=Nc2ccccc2S1", "11.3 µM (inactive)"),
]

* * *

Tested on: OVCAR-3
Assay: NCI tumour cell line growth inhibition, 48 h
Activity calls are given as the source filed them. Cut-off read from the data, not from the text of the source: active = GI50 up to about 1.1 µM and inactive = higher.
Classes used: active, inactive

# molecule, label
rows = [
    ("O=c1oc2c(Cl)cc(Cl)cc2cc1-c1cn2c(n1)sc1ccccc12", "inactive"),
    ("Cc1n[nH]c(=O)n1C1CC1", "inactive"),
    ("Cn1c(=O)c2c(n(C)c1=O)n1c(=O)c3ccccc3nc1n2C", "inactive"),
    ("CCN(CC)C(=O)c1c(N2CCOCC2)cc(N(CC)CC)oc1=O", "inactive"),
    ("Clc1cc2nn(C3CCCCO3)nc2cc1Cl (configuration not stated)", "inactive"),
    ("Brc1c(C#CCC2CCCCC2)ccc(C#CCC2CCCCC2)c1Br", "inactive"),
    ("CS(=O)(=O)c1ccc(-c2cc(-c3ccc(S(C)(=O)=O)cc3)[n+](-c3cc(-c4ccc(S(C)(=O)=O)cc4)c([O-])c(-c4ccc(S(C)(=O)=O)cc4)c3)c(-c3ccc(S(C)(=O)=O)cc3)c2)cc1", "inactive"),
    ("COC(=O)c1ccc(Oc2nc3ccc(C(F)(F)F)cc3nc2-c2ccccc2)cc1", "inactive"),
    ("OCCN(CCO)c1ccc2c(-c3ccccc3)cc(N(CCO)CCO)nc2n1", "inactive"),
    ("Cc1ccnc2c1ccc1nc3ccccc3n12", "inactive"),
    ("NC(=O)/C=c1/c2ccccc2n2nc3ccccc3c12", "inactive"),
    ("CC(C)(C)OC(=O)NC1CCCCC1NC(=O)C(=O)NC1CCCCC1NC(=O)OC(C)(C)C (configuration not stated)", "inactive"),
    ("O=C(NCc1ccccc1)c1cc2cc(O)c(O)cc2cn1", "inactive"),
    ("COc1cc2c(cc1O)Cc1c-2[n+](C)cc2cc(OC)c(OC)cc12", "inactive"),
    ("CCC12C[N+]3([O-])CCc4c([nH]c5ccccc45)C(C(=O)OC)(c4cc5c(cc4OC)N(C)C4C(O)(C(=O)OC)C(OC(C)=O)C6(CC)C=CCN7CCC54C76)CC(C3)C1O2 (configuration not stated)", "active"),
    ("C=CC(C)(C)[C@@]12CC3C(=O)N[C@@H](Cc4ccccc4)C(=O)N3[C@@H]1N(C(C)=O)c1ccccc12 (some centres not stated)", "inactive"),
    ("O=c1[nH]c(=O)n(C2CC(O)C(CO)O2)cc1OCCc1ccccc1 (configuration not stated)", "inactive"),
    ("CC(C)(C)[Si](C)(C)OC[C@H](/C=C\\CCCC(=O)O)NC1(c2ccccc2)c2ccccc2-c2ccccc21", "inactive"),
    ("N#CC(C#N)=C(C(C#N)C#N)C(C#N)C#N", "inactive"),
    ("CCOc1cc(/C=C2\\N=C(c3ccccc3)N(c3nc4ccccc4s3)C2=O)ccc1O", "inactive"),
    ("O=C1N(c2ccc(Cl)cc2)C(=O)C2(SC=NN2Cc2ccccc2)N1c1ccc(Cl)cc1 (configuration not stated)", "inactive"),
    ("C=CCC1(O)c2cccc(O)c2C(=O)c2cccc(O)c21 (configuration not stated)", "inactive"),
]
